Let's look at some compounds and their measured half-life at 100 µM.
# assay: Chemical stability of the compound in aqueous phosphate buffer of pH 7.4 assessed as half life at 100 uM by HPLC analysis
# Assay type: physicochemical

# compound, half-life at 100 µM
rows = [
    ("CCOC(=O)c1cn(C2CC2)c2cc(N3CCN(CCC45CC6CC(CC(C6)C4)C5)CC3)c(F)cc2c1=O", "> 76 h"),
    ("CCOC(=O)c1cn(C2CC2)c2cc(N3CCN(Cc4ccccc4)CC3)c(F)cc2c1=O", "> 76 h"),
    ("CCOC(=O)c1cn(C2CC2)c2cc(N3CCNCC3)c(F)cc2c1=O [CIPROFLOXACIN ETHYL ESTER]", "> 76 h"),
]
